- System Name: human CB2 receptors (Homo sapiens (Human), UniProt P34972)
- Sequence (P34972 whole entry): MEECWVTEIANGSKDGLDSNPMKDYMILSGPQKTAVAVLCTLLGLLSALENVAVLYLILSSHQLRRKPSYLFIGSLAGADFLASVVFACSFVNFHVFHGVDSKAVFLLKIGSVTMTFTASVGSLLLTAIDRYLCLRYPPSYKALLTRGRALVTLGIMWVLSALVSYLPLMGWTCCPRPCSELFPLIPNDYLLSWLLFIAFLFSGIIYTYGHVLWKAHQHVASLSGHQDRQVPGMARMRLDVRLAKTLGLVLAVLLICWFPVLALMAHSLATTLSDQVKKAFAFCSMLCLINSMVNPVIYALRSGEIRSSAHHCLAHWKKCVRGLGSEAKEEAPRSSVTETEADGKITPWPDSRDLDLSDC
- Assay Method Text: functional cAMP assay, CHO cells expressing human CB2
- Format: cell-based
- Condition Set: read-out: Human CB2 EC50
- Description: CHO cells expressing human CB1 or CB2 receptors are seeded 17-24 hours prior to the experiment 50.000 cells per well in a black 96 well plate with flat clear bottom (Corning Costar #3904) in DMEM (Invitrogen No. 31331), 1×HT supplement, with 10% fetal calf serum and incubated at 5% CO2 and 37° C. in a humidified incubator. […] The time-resolved energy transfer is measured by a TRF reader (Evotec Technologies GmbH), equipped with a ND:YAG laser as excitation source. […]
Observed Property: pEC50
Note: pEC50 values are expressed as the negative base-10 logarithm of concentration in M.

Challenge: Entry Cc1nc(C(C)(NC(=O)c2cc(O[C@@H](C)C(F)(F)F)c(C3(F)COC3)cn2)C2CC2)no1 (stereo partly shown) [Example 144] : reported pEC50 = ?
Response given: 7.85

Challenge: Entry Cc1nnc(C(C)(CC2CC2)NC(=O)c2cc(O[C@@H](C)C(F)(F)F)c(C3(F)COC3)cn2)o1 (stereo partly shown) : reported pEC50 = ?
Response given: 6.35

Challenge: Entry CNC(=O)C(NC(=O)c1cc(O[C@@H](C)C(F)(F)F)c(C2CC2)cn1)C(C)(C)O (stereo partly shown) [Example 238] : reported pEC50 = ?
Response given: 7.56

Challenge: Entry Cc1nc(C(C)(CC2CC2)NC(=O)c2cc(O[C@@H](C)C(F)(F)F)c(C3CCC3)cn2)no1 (stereo partly shown) [Example 110] : reported pEC50 = ?
Response given: 9.10

Values compiled from patent US9409866B2.
